// reported pest or weed control at 63 g/ha for each item listed
Test system: velvetleaf (Abutilon theophrasti, ABUTH)
Assay: Post-emerge greenhouse herbicide test, phytotoxicity rating
Format: in vivo
Conditions: Abutilon theophrasti, post-emergence, 336 h, rate 63 g ai/ha, 14 days after application, scale 0-100
Protocol: A standard greenhouse herbicide activity screening system was used to evaluate the herbicidal efficacy and crop safety of these test compounds. […] At 14 days after application of the test materials, phytotoxicity ratings were recorded. […]
Give just the number in %; leave the unit off.

Example cases with answers are listed next.
Nn1c(C(F)(F)F)cc(=O)n(-c2cc(Oc3ccccc3)c(Cl)cc2F)c1=O: 100
Nn1c(C(F)(F)F)cc(=O)n(-c2cc(Oc3cc([N+](=O)[O-])cc(C(F)(F)F)c3)c(Cl)cc2F)c1=O: 45
Nn1c(C(F)(F)F)cc(=O)n(-c2cc(Oc3nc(F)c(F)cc3F)c(Cl)cc2F)c1=O: 100

QUERY: Which pest or weed control at 63 g/ha value is on record for `O=c1n(-c2cc(Oc3ncccc3C(F)(F)F)c(Cl)cc2F)c(=S)n2n1CCCC2` ?
RESULT: 100

QUERY: Which pest or weed control at 63 g/ha value is on record for `O=c1n(-c2cc(Oc3ncccn3)c(Cl)cc2F)c(=S)n2n1CCCC2` ?
RESULT: 100

QUERY: Which pest or weed control at 63 g/ha value is on record for `Nn1c(C(F)(F)F)cc(=O)n(-c2cc(Oc3nccc(Cl)n3)c(Cl)cc2F)c1=O` ?
RESULT: 100

====

// reported ECHCG phytotoxicity rating (0-100) for each item listed
Test system: barnyardgrass (Echinochloa crusgalli, ECHCG)
Assay: Post-emerge greenhouse herbicide test, phytotoxicity rating
Format: in vivo
Settings: 500 g al/ha, 14 days after application
Answer field: number only, no words.

Example cases with answers are listed next.
O=c1sc(=Nc2cc(Oc3ncccn3)c(Cl)cc2F)n2n1CCCC2: 95
Nc1ccc(Oc2cc(-n3c(=O)n4n(c3=S)CCCC4)c(F)cc2Cl)c(C(F)(F)F)c1: 0
Cn1c(C(F)(F)F)nc(-c2cc(Oc3ncccn3)c(Cl)cc2F)c1Cl: 95
O=c1n(-c2cc(Oc3ccc([N+](=O)[O-])cc3)c(Cl)cc2F)c(=S)n2n1CCCC2: 0

QUERY: Tell me reported ECHCG phytotoxicity rating (0-100) for `O=c1n(CCCF)nnn1-c1cc(Oc2ncc(Br)cn2)c(Cl)cc1F` , tested with barnyardgrass (Echinochloa crusgalli, ECHCG).
RESULT: 30

QUERY: Tell me reported ECHCG phytotoxicity rating (0-100) for `O=C1C2=CCCCN2C(=O)N1c1cc(Oc2ncccc2C(F)(F)F)c(Cl)cc1F` , tested with barnyardgrass (Echinochloa crusgalli, ECHCG).
RESULT: 0

QUERY: Tell me reported ECHCG phytotoxicity rating (0-100) for O=C1C2CCCCN2C(=O)N1c1cc(Oc2ncccc2C(F)(F)F)c(Cl)cc1F (centres unmarked) , tested with barnyardgrass (Echinochloa crusgalli, ECHCG).
RESULT: 0

QUERY: Tell me reported ECHCG phytotoxicity rating (0-100) for `O=c1n(CCCF)nnn1-c1cc(Oc2ccc(C(F)(F)F)cn2)c(Cl)cc1F` , tested with barnyardgrass (Echinochloa crusgalli, ECHCG).
RESULT: 10

QUERY: Tell me reported ECHCG phytotoxicity rating (0-100) for `Cn1nc(-c2cc(Oc3nc(F)c(F)cc3F)c(Cl)cc2F)c(Cl)c1C(F)(F)F` , tested with barnyardgrass (Echinochloa crusgalli, ECHCG).
RESULT: 70

====

// reported SORHA phytotoxicity rating (0-100) for each item listed
System: Johnsongrass (Sorghum halepense, SORHA)
Experiment: Post-emerge greenhouse herbicide test, phytotoxicity rating
Format: in vivo
Conditions: 63 g al/ha, 14 days after application
Answer field: number only, no words.

N#Cc1ccccc1Oc1cc(-n2c(=O)n3n(c2=S)CCCC3)c(F)cc1Cl [Compound 8-7]: 0

QUERY: Which SORHA phytotoxicity rating (0-100) value is on record for CN1CC(=O)N(c2cc(Oc3ncccn3)c(Cl)cc2F)C1=O [Compound 8-3] ?
RESULT: 0

QUERY: Which SORHA phytotoxicity rating (0-100) value is on record for Cc1nn(-c2cc(Oc3ncccn3)c(Cl)cc2F)c(=O)n1C(F)F [Compound 3-1] ?
RESULT: 80

QUERY: Which SORHA phytotoxicity rating (0-100) value is on record for O=c1n(CCCF)nnn1-c1cc(Oc2ncccc2[N+](=O)[O-])c(Cl)cc1F [Compound 6-2] ?
RESULT: 0

QUERY: Which SORHA phytotoxicity rating (0-100) value is on record for Cn1nc(-c2cc(Oc3ncccc3C(F)(F)F)c(Cl)cc2F)c(Cl)c1C(F)(F)F [Compound 1-2] ?
RESULT: 20

QUERY: Which SORHA phytotoxicity rating (0-100) value is on record for O=c1cc2n(c(=O)n1-c1cc(Oc3ncccn3)c(Cl)cc1F)CCC2 [Compound 5-12] ?
RESULT: 0

QUERY: Which SORHA phytotoxicity rating (0-100) value is on record for O=c1n(CCCF)nnn1-c1cc(Oc2ncccc2C(F)(F)F)c(Cl)cc1Cl [Compound 6-7] ?
RESULT: 0

QUERY: Which SORHA phytotoxicity rating (0-100) value is on record for Cn1nc(-c2cc(Oc3nc(F)c(F)cc3F)c(Cl)cc2F)c(Cl)c1C(F)(F)F [Compound 1-6] ?
RESULT: 30

QUERY: Which SORHA phytotoxicity rating (0-100) value is on record for COc1cc(OC)nc(Oc2cc(-n3nnn(CCCF)c3=O)c(F)cc2Cl)n1 [Compound 6-15] ?
RESULT: 0

QUERY: Which SORHA phytotoxicity rating (0-100) value is on record for O=c1n(CCCF)nnn1-c1cc(Oc2ncc(Br)cn2)c(Cl)cc1F [Compound 6-16] ?
RESULT: 0

QUERY: Which SORHA phytotoxicity rating (0-100) value is on record for Cn1nc(-c2cc(Oc3ncccc3C#N)c(Cl)cc2F)c(Cl)c1C(F)(F)F [Compound 1-3] ?
RESULT: 20

QUERY: Which SORHA phytotoxicity rating (0-100) value is on record for CCOC(=O)C(C)Oc1ccc(Oc2cc(-n3c(=O)n4n(c3=S)CCCC4)c(F)cc2Cl)cc1 (stereo not shown) [Compound 8-11] ?
RESULT: 90

====

System: soybean (Glycine max L., var. Pella 86, SOY)
Test: Pre-emerge greenhouse test, crop damage rating
Format: in vivo
Details: 500 g ai/ha, 14 days after application, rating scale 0-100
observable: crop damage rating SOY
Answer field: number only, no words.

Cn1nc(-c2cc(Oc3ncccc3[N+](=O)[O-])c(Cl)cc2F)c(Cl)c1C(F)(F)F [Compound 1-1]: 10
N#Cc1cccnc1Oc1cc(-n2nnn(CCCF)c2=O)c(Cl)cc1Cl [Compound 6-5]: 0

QUERY: Tell me reported crop damage rating SOY for O=c1n(CCCF)nnn1-c1cc(Oc2ncccn2)c(Cl)cc1Cl [Compound 6-14] , tested with soybean (Glycine max L., var. Pella 86, SOY).
RESULT: 80

QUERY: Tell me reported crop damage rating SOY for O=c1n(-c2cc(Oc3ccc([N+](=O)[O-])cc3C(F)(F)F)c(Cl)cc2F)c(=S)n2n1CCCC2 [Compound 8-14] , tested with soybean (Glycine max L., var. Pella 86, SOY).
RESULT: 0

QUERY: Tell me reported crop damage rating SOY for Cn1c(C(F)(F)F)nc(-c2cc(Oc3ncccn3)c(Cl)cc2F)c1Cl [Compound 2-3] , tested with soybean (Glycine max L., var. Pella 86, SOY).
RESULT: 25

QUERY: Tell me reported crop damage rating SOY for CCOC(=O)C(C)Oc1ccc(Oc2cc(-n3c(=O)n4n(c3=S)CCCC4)c(F)cc2Cl)cc1 (centres unmarked) [Compound 8-11] , tested with soybean (Glycine max L., var. Pella 86, SOY).
RESULT: 30

QUERY: Tell me reported crop damage rating SOY for N#Cc1cc([N+](=O)[O-])ccc1Oc1cc(-n2c(=O)n3n(c2=S)CCCC3)c(F)cc1Cl [Compound 8-12] , tested with soybean (Glycine max L., var. Pella 86, SOY).
RESULT: 0

QUERY: Tell me reported crop damage rating SOY for O=c1n(-c2cc(Oc3ccc([N+](=O)[O-])cc3)c(Cl)cc2F)c(=S)n2n1CCCC2 [Compound 8-8] , tested with soybean (Glycine max L., var. Pella 86, SOY).
RESULT: 20

QUERY: Tell me reported crop damage rating SOY for O=C1C2CCCCN2C(=O)N1c1cc(Oc2ncccc2C(F)(F)F)c(Cl)cc1F (centres unmarked) [Compound 8-4] , tested with soybean (Glycine max L., var. Pella 86, SOY).
RESULT: 0

QUERY: Tell me reported crop damage rating SOY for CS(=O)(=O)Nc1ccc(Oc2cc(-n3c(=O)cc4n(c3=O)CCC4)c(F)cc2Cl)cc1 [Compound 5-5] , tested with soybean (Glycine max L., var. Pella 86, SOY).
RESULT: 10

QUERY: Tell me reported crop damage rating SOY for Cn1nc(-c2cc(Oc3ncccn3)c(Cl)cc2F)c(Cl)c1C(F)(F)F [Compound 1-7] , tested with soybean (Glycine max L., var. Pella 86, SOY).
RESULT: 0

QUERY: Tell me reported crop damage rating SOY for O=c1sc(=Nc2cc(Oc3ncccn3)c(Cl)cc2F)n2n1CCCC2 [Compound 7-2] , tested with soybean (Glycine max L., var. Pella 86, SOY).
RESULT: 80

QUERY: Tell me reported crop damage rating SOY for O=c1n(CCCF)nnn1-c1cc(Oc2ccc(C(F)(F)F)cn2)c(Cl)cc1Cl [Compound 6-9] , tested with soybean (Glycine max L., var. Pella 86, SOY).
RESULT: 0

QUERY: Tell me reported crop damage rating SOY for Cn1nc(-c2cc(Oc3ccc(C#N)cn3)c(Cl)cc2F)c(Cl)c1C(F)(F)F [Compound 1-4] , tested with soybean (Glycine max L., var. Pella 86, SOY).
RESULT: 0

QUERY: Tell me reported crop damage rating SOY for Cn1nc(-c2cc(Oc3nc(F)c(F)cc3F)c(Cl)cc2F)c(Cl)c1C(F)(F)F [Compound 1-6] , tested with soybean (Glycine max L., var. Pella 86, SOY).
RESULT: 0

QUERY: Tell me reported crop damage rating SOY for Cc1nn(-c2cc(Oc3ncccn3)c(Cl)cc2F)c(=O)n1C(F)F [Compound 3-1] , tested with soybean (Glycine max L., var. Pella 86, SOY).
RESULT: 100

QUERY: Tell me reported crop damage rating SOY for COc1cc(OC)nc(Oc2cc(-n3nnn(CCCF)c3=O)c(F)cc2Cl)n1 [Compound 6-15] , tested with soybean (Glycine max L., var. Pella 86, SOY).
RESULT: 0
